Ref: patent US20230293407A1

Tested on: Escherichia coli
run.description: preservation efficacy test (PET), European Pharmacopoeia 5.1.3
Type: cell-based
test.context: PET, Escherichia coli (EC), 7 days after inoculation
In this section we review reported number of microorganisms, 7 days values for a set of compounds.
Reply with just the number.

compound: COc1ccc(C(=O)O)cc1 [anisic acid, reference compound]
number of microorganisms, 7 days: 1
//
compound: CCCCC(CC)COCC(O)CO (stereo not shown) [Ethylhexlglycerin, Ethylhexylglycerin, reference compound]
number of microorganisms, 7 days: 82
//
compound: CCCCCCCCC(O)CO (stereo not shown) [1,2-decylene glycol, reference compound]
number of microorganisms, 7 days: 1

What measured number of microorganisms, 7 days is associated with O=c1cccccc1O [Tropolone, reference compound] on Escherichia coli?
1.100

Look up number of microorganisms, 7 days with Escherichia coli for this compound: CCCCCCC(O)CO (stereo not shown) [1,2-octanediol]
1

# get_value(readout= number of microorganisms, 7 days, system= Escherichia coli) for CCCCCC(O)C(C)O (stereo not shown) [2,3-octanediol]
290

Item CCCCCCC(O)C(C)O (stereo not shown) [2,3-nonanediol] with Escherichia coli - number of microorganisms, 7 days?
27.000

---

Test system: Escherichia coli
run.description: preservation efficacy test (PET), European Pharmacopoeia 5.1.3
Format: cell-based
test.context: EC; 28 days after inoculation; use concentration in label
This section presents compounds with their documented count at 28 days values.
Provide a numeric answer; units are not to be included.

compound: CC(=O)CCc1ccc(OCCO)cc1 [0.4% Hydroxyethoxyphenyl Butanone]
measured.number: 1
//
compound: CCCCCC(O)CO (stereo not shown) [0.2 % 1,2-heptanediol]
measured.number: 1
//
compound: CC(C)(C)C(=O)C(Oc1ccc(Cl)cc1)n1ccnc1 (stereo not shown)
measured.number: 1
//
compound: O=P(O)(O)O[C@H]1[C@H](OP(=O)(O)O)[C@@H](OP(=O)(O)O)[C@H](OP(=O)(O)O)[C@@H](OP(=O)(O)O)[C@H]1OP(=O)(O)O
measured.number: 1
//
compound: CC(=O)CCC(=O)O
measured.number: 1

Need count at 28 days, item "Cc1cc(O)ccc1C(C)C"
51.000

Quick one: count at 28 days for CCCCC(O)C(C)O (stereo not shown) [0.4% 2,3-heptanediol] ?
1

---

System: Escherichia coli
run.description: preservation efficacy test (PET), European Pharmacopoeia 5.1.3
Assay type: cell-based
test.context: EC; 28 days after inoculation; use concentration in label
Listing of entries alongside the reported count at 28 days.
// return just the number, without any unit appended

What count at 28 days value was documented for this compound, CCCCCC(O)C(C)O (centres unmarked) [2,3-octanediol] ?
18

Please give the measured count at 28 days for this compound: CCCCCC(O)CO (centres unmarked) [0.3% 1.2-heptanediol]
1

---

Test system: Candida albicans
run.description: preservation efficacy test (PET), European Pharmacopoeia 5.1.3
Format: cell-based
test.context: CA; 28 days after inoculation; use concentration in label
count at 28 days by entry:
Give your answer as a number; write no unit.

# count of solved cases: 8
compound: CC(=O)CCc1ccc(OCCO)cc1 [0.4% Hydroxyethoxyphenyl Butanone]
count at 28 days: 450
//
compound: CCCCCC(O)CO (centres unmarked) [0.3% 1.2-heptanediol]
count at 28 days: 150.000
//
compound: CCCCCC(O)CO (centres unmarked) [0.2 % 1,2-heptanediol]
count at 28 days: 420.000
//
compound: O=P(O)(O)O[C@H]1[C@H](OP(=O)(O)O)[C@@H](OP(=O)(O)O)[C@H](OP(=O)(O)O)[C@@H](OP(=O)(O)O)[C@H]1OP(=O)(O)O
count at 28 days: 520.000
//
compound: CC(C)(C)C(=O)C(Oc1ccc(Cl)cc1)n1ccnc1 (centres unmarked)
count at 28 days: 72.000
//
compound: CCCCCC(O)C(C)O (centres unmarked)
count at 28 days: 11.000
//
compound: O=C([O-])CN(CCN(CC(=O)O)CC(=O)O)CC(=O)[O-].[Na+].[Na+] [0.2 % Disodium EDTA]
count at 28 days: 810.000
//
compound: CC(=O)CCC(=O)O
count at 28 days: 38.000

Which measured count at 28 days value corresponds to "OCCCO" ?
1

---

System: Aspergillus brasiliensis
run.description: preservation efficacy test (PET), European Pharmacopoeia 5.1.3
Type: cell-based
test.context: 7 days after inoculation; substance at given % in test formulation
Listing of entries alongside the reported AB germ count, 7 days.

Observe how each entry below is paired with its result.
compound: COC(=O)c1ccc(O)cc1
AB germ count, 7 days: 690.000
//
compound: CC(C)=CCC[C@](C)(O)[C@@H]1CC=C(C)CC1
AB germ count, 7 days: 880.000
//
compound: CC(=O)c1ccc(O)cc1 [0.1% 4-Hydroxyacetophenone (SymSave H)]
AB germ count, 7 days: 680.000

Then this compound:
Look up AB germ count, 7 days: "CCOC(=O)c1ccc(O)cc1"
630.000

---

Tested on: Escherichia coli
run.description: preservation efficacy test (PET), European Pharmacopoeia 5.1.3
Assay type: cell-based
test.context: 14 days after inoculation; o/w emulsion (Table 53)
Reported germ count EC, 14 days values follow for various molecules
Simply state the number, no unit and no words.

What value of germ count EC, 14 days has been reported for the following molecule? CCCCC(CC)COCC(O)CO (stereo not shown) [Ethylhexlglycerin, Ethylhexylglycerin, reference compound]
1

What value of germ count EC, 14 days has been reported for the following molecule? CC(=O)c1ccc(O)cc1 [4-Hydroxyacetophenone, reference compound]
27

Field request: germ count EC, 14 days | item: CCCCC(O)C(C)O (stereo not shown)
82

Param item = CCCCCCC(O)C(C)O (stereo not shown) ; retrieve measured germ count EC, 14 days.
760

---

run.description: maximum water solubility of alkanediols, visual observation
Assay type: physicochemical
test.context: ambient temperature after 24 h storage at 5° C.
Hi, to clarify the labels: 1 covers Maximum solubility in water from 2 % by weight upward, 0 covers anything below 2 % by weight.

molecule: CCCCCCC(O)CO (centres unmarked) [Hydrolite ® 8]
group.label: 0
--
molecule: CCCCCC(O)C(C)O (centres unmarked) [2,3-octanediol]
group.label: 0
--
molecule: CCCCCCC(O)C(C)O (centres unmarked) [2,3-nonanediol]
group.label: 0
--
molecule: CCCC(O)CO (centres unmarked) [Hydrolite ® 5 green]
group.label: 1
--
molecule: CCCCCCCC(O)CO (centres unmarked) [1,2-Nonanediol]
group.label: 0
--
molecule: CCCCCC(O)CO (centres unmarked) [1,2-heptanediol]
group.label: 1
--
molecule: CCCCC(O)C(C)O (centres unmarked) [2,3-heptanediol]
group.label: 1

In plain terms: is recorded Maximum solubility in water at least 2 % by weight for CCCCC(O)CO (centres unmarked) [Hydrolite ® 6] ?
1

---

Tested on: Aspergillus brasiliensis
run.description: preservation efficacy test (PET), European Pharmacopoeia 5.1.3
Format: cell-based
test.context: AB; 7 days after inoculation; use concentration in label
Rule for this label: yes means count at 7 days is less than 600; no means count at 7 days is at least 600.

Here are 3 compounds together with their reported answers.
compound: OCCCO
test.target: Aspergillus brasiliensis
group.label: no
//
compound: CCCCCCCC(=O)NO [0.4% caprylhydroxamic acid]
test.target: Aspergillus brasiliensis
group.label: yes
//
compound: CCCCC(O)C(C)O (centres unmarked)
test.target: Aspergillus brasiliensis
group.label: no

Consider the record given below.
API: query returns whether the compound falls strictly under 600 in count at 7 days. Query: CC(O)C(=O)[O-].[Na+] (centres unmarked) [0.8% sodium lactate (50%)]
no

---

System: Aspergillus brasiliensis
run.description: preservation efficacy test (PET), European Pharmacopoeia 5.1.3
Format: cell-based
test.context: 28 days after inoculation; substance at given % in test formulation
observed.property: AB germ count, 28 days
Lab note: record just the number, no unit beside it.

Endpoint output: AB germ count, 28 days of "CC(C)=CCC[C@](C)(O)[C@@H]1CC=C(C)CC1" . Value?
660.000

For "CCOC(=O)c1ccc(O)cc1" , what is its reported AB germ count, 28 days?
730.000

If you can, please state the reported AB germ count, 28 days value of "COC(=O)c1ccc(O)cc1" .
240.000

Name the recorded AB germ count, 28 days for CC(=O)c1ccc(O)cc1 [0.1% 4-Hydroxyacetophenone (SymSave H)] .
18.000

Entry under review: O=C(OCc1ccccc1)c1ccccc1O [0.2% Benzyl Salicylate] . Reported AB germ count, 28 days?
630.000

---

Tested on: Candida albicans
run.description: preservation efficacy test (PET), European Pharmacopoeia 5.1.3
Assay type: cell-based
test.context: CA; 14 days after inoculation; use concentration in label
observed.property: count at 14 days
Lab note: jot the number down without any unit.

compound: O=P(O)(O)O[C@H]1[C@H](OP(=O)(O)O)[C@@H](OP(=O)(O)O)[C@H](OP(=O)(O)O)[C@@H](OP(=O)(O)O)[C@H]1OP(=O)(O)O
count at 14 days: 570.000

Pending compound:
Fill in: count at 14 days of "O=C([O-])CC[C@@H](C(=O)[O-])N(CC(=O)[O-])CC(=O)[O-].[Na+].[Na+].[Na+].[Na+]" is ___
200.000
